Attribute: MIC
- Test system: spoilage organisms
- procedureText: MIC of antimicrobial candidates (Table II)
- Format: cell-based
- conditionNotes: 2688 h, read-out: MIC
Your answer should be a plain number; it is taken to be in µg/mL.

Input line: Entry C=C(C)C1CC=C(C=O)CC1 (stereo not drawn) [perillaldehyde] : reported MIC = ?
Output line: 500

---
Input line: Record request: MIC value, item Cc1ccc(C(C)C)c(O)c1 [thymol]
Output line: 250

Input line: Query: MIC; subject: CCCCCCCCCCO [1-Decanol]
Output line: 24

Input line: Quick one: MIC of C/C=C/C=C/C(=O)O [Sorbic acid] ?
Output line: 1200

Input line: Can you share its MIC? I mean this molecule: CCCOC(=O)c1ccccc1 [Propyl benzoate]
Output line: 66

Input line: Recorded MIC of CCCCCCCCC(=O)O [Nonanoic acid] , please.
Output line: 63

Input line: I am curious: what MIC value has been reported for O=CC=Cc1ccccc1 [Cinnamaldehyde] ?
Output line: 66

Input line: What does the data say about its MIC? Entry: CC(=O)OCCC1CCCCC1 [2-Cyclohexylethyl acetate]
Output line: 102

Input line: For the molecule shown here, CCCCCCCCCCC=O [Undecanal] , give the reported MIC.
Output line: 34

Input line: Entry O=C(O)C=Cc1ccccc1 [Cinnamic acid] : reported MIC = ?
Output line: 300

Input line: GET /values?readout=MIC&item= CCCCCCCCCC=O [Decanal]
Output line: 47

Input line: Requested field: MIC. Item: O=C(O)CCCC1CCCCC1 [Cyclohexanebutyric acid]
Output line: 68

FYI, the data here is from patent US20100040738A1.
